Values were extracted from PubChem BioAssay AID1851.

Target: Cytochrome P450 1A2 (Homo sapiens) (UniProt P05177)
Sequence (P05177 whole entry, looked up): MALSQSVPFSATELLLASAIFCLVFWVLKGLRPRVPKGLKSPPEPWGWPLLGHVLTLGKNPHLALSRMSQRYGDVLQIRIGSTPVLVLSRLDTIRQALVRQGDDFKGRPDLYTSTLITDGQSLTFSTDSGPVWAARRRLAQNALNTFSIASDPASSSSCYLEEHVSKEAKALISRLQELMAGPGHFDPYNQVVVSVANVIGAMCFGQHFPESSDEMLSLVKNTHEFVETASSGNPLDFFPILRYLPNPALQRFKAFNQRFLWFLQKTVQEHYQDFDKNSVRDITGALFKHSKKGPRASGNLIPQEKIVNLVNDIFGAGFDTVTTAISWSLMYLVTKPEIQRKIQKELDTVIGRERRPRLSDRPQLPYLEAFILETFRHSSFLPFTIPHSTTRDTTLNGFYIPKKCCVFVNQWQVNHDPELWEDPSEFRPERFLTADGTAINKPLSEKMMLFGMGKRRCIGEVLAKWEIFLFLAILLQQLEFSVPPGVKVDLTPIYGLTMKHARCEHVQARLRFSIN
Experiment: Cytochrome panel assay with activity outcomes
Details: recombinant CYP, pro-luciferin dealkylation, luminescence, p450-cyp1a2; series mostly up to 57.1 µM
The whole screen tested about 16,000 compounds, of which about 5,700 (36%) were called active. About 24% were inconclusive and are not listed. Calls follow the shape of the dose curve; as a rule, active = well fitted curve in the direction sought with a large enough effect; inconclusive = small, poorly fitted or top-dose-only effect, or effect the other way; inactive = no such curve, though single readings can be large or run the other way. Some of the results follow.
Pick one and only one: t (active), f (inactive)

Ask: Outcome? CCCCN(CC)Cc1ccc(CNC(=O)Nc2ccc(OC)cc2OC)o1
Reply: f

Ask: Outcome? CCOc1ccc(-c2nnn(CC(=O)Nc3cc(OC)ccc3OC)n2)cc1OCC
Reply: f

Ask: Outcome? CCOC(=O)c1c(NC(=O)CCCN2CCOCC2)sc2c1CC(C)(C)OC2
Reply: t

Ask: Outcome? CC(C)NC(=O)N1CC[C@@]2(CCCN(C(=O)c3cc(C(F)(F)F)cc(C(F)(F)F)c3)C2)C1
Reply: f

Ask: Outcome? COc1ccc(N2CCC(CNC(=O)Nc3ccc(OC)cc3OC)C2)cc1 (stereo not drawn)
Reply: t

Ask: Outcome? CNC(=O)c1ccc(-c2sc3nc(N4CCOCC4)c4c(c3c2N)CC(C)(C)OC4)o1
Reply: f

Ask: Outcome? COc1ccc(OC)c(NC(=O)Cn2cccc2)c1
Reply: t

Ask: Outcome? CC(C)(C)NC(=O)Cn1cnc([N+](=O)[O-])n1
Reply: f

Ask: Outcome? COc1ccc(NC(=O)Cn2cccc2)c(OC)c1
Reply: t

Ask: Outcome? CCOC(=O)CC(NC(=O)c1cccs1)c1ccc(OCC)cc1 (stereo not drawn)
Reply: t

Ask: Outcome? COc1ccccc1C(c1nnnn1C(C)(C)C)N1CCCc2ccccc21 (stereo not drawn)
Reply: f

Ask: Outcome? CCN1CCCC1CNC(=O)C(=O)Nc1ccc(OC)cc1 (stereo not drawn)
Reply: f

Ask: Outcome? CCOc1ccc(C(CC(=O)O)NC(=O)COc2ccccc2)cc1 (stereo not drawn)
Reply: f

Ask: Outcome? COc1cccc(CNc2ccc3nc(-c4ccc(N)cc4)c(OC)n3n2)c1
Reply: t

Ask: Outcome? COCCN(C(=O)Nc1ccc(OC)cc1OC)C1CCN(C(C)=O)CC1
Reply: f

Ask: Outcome? O=C(Cn1cnc([N+](=O)[O-])n1)N/N=C/c1ccccc1O
Reply: t

Ask: Outcome? Clc1ccccc1-c1nc(-c2ccccc2)n[nH]1
Reply: t

Ask: Outcome? COc1ccc(NC(=O)NCc2cccn2C)c(OC)c1
Reply: t

Ask: Outcome? COc1ccc(OC)c(NC(=O)[C@H]2CC=CC[C@H]2C(=O)O)c1
Reply: f

Ask: Outcome? CCOc1ccc(C(=O)Nc2ccccc2N2CCCC2)cc1
Reply: t

Ask: Outcome? COc1ccc(NC(=O)CSc2nnc(Cc3cccn3C)n2CCc2ccccc2)c(OC)c1
Reply: f

Ask: Outcome? CCOc1cc(CC(=O)N[C@@H](CC(C)C)c2ccccc2N2CCCCC2)ccc1C(=O)O
Reply: f

Ask: Outcome? N#CCCn1nnc2ccccc21
Reply: f

###

Molecular target: Cytochrome P450 1A2 (Homo sapiens) (UniProt P05177)
Assay: Cytochrome panel assay with activity outcomes
Settings: recombinant CYP, pro-luciferin dealkylation, luminescence, p450-cyp1a2; series mostly up to 57.1 µM
Screen size: about 16,000 compounds; about 5,700 (36%) were called active. Inconclusive results (about 24%) are left out. The call rests on the fitted dose curve; in most records, active means well fitted curve in the direction sought with a large enough effect; inconclusive means small, poorly fitted or top-dose-only effect, or effect the other way; inactive means no such curve, though single readings can be large or run the other way. This is one part of the list.
Pick one and only one: active, inactive

Ask: Outcome? O=C(O)CCC(=O)CCC(=O)c1ccccc1
Reply: inactive

Ask: Outcome? CCCS(=O)(=O)N1CCCC(C(=O)N2CCN(C(=O)OCC)CC2)C1 (stereo unspecified)
Reply: active

Ask: Outcome? CCCS(=O)(=O)N1CCCC(C(=O)NCCCOC(C)C)C1 (stereo unspecified)
Reply: inactive

Ask: Outcome? Nc1c2c(=O)oc(-c3ccccc3)cc2nn1-c1ccccc1
Reply: active

Ask: Outcome? O/N=C/c1ccccc1OCc1ccc(Cl)cc1
Reply: active

Ask: Outcome? CCn1c(C)nc2cc(C(=O)NNS(=O)(=O)c3ccccc3F)ccc21
Reply: active

###

Molecular target: Cytochrome P450 1A2 (Homo sapiens) (UniProt P05177)
Experiment: Cytochrome panel assay with activity outcomes
Settings: recombinant CYP, pro-luciferin dealkylation, luminescence, p450-cyp1a2; series mostly up to 57.1 µM
The campaign covered roughly 16,000 compounds. About 5,700 (36%) were called active. Roughly 24% stayed inconclusive and do not appear here. The call rests on the fitted dose curve; in most records, active means well fitted curve in the direction sought with a large enough effect; inconclusive means small, poorly fitted or top-dose-only effect, or effect the other way; inactive means no such curve, though single readings can be large or run the other way. This is one part of the list.
Pick one and only one: True for active, False for inactive

Ask: Outcome? CN1CCN(c2ccc([N+](=O)[O-])cc2C(=O)N2CCOCC2)CC1
Reply: False

Ask: Outcome? CC(=O)C1=C(O)C=C(c2ccco2)CC1c1ccco1 (stereo unspecified)
Reply: True

Ask: Outcome? COc1cccc(OC)c1C(=O)NC(=S)N1CCN(c2ccc(C(F)(F)F)cc2[N+](=O)[O-])CC1
Reply: False

Ask: Outcome? CC[C@]1(O)C[C@@H]2CN(CCc3c([nH]c4ccccc34)[C@](C(=O)OC)(c3cc4c(cc3OC)N(C=O)[C@H]3[C@@](O)(C(=O)OC)[C@H](C(=O)OC)[C@@]5(CC)C=CCN6CC[C@]43[C@H]65)C2)C1
Reply: False

Ask: Outcome? O=C(O)CONC(=O)c1cc(OCC(F)(F)F)ccc1OCC(F)(F)F
Reply: False

Ask: Outcome? CCc1cccc2c(-c3ccccc3)c3c(nc12)OCC3
Reply: True

Ask: Outcome? CCc1ccc(N2CC(C)Cn3c2nc2c3c(=O)n(CCN3CCOCC3)c(=O)n2C)cc1 (stereo unspecified)
Reply: False

Ask: Outcome? O=C(O)C1C2C=CC3(CN(Cc4ccccn4)C(=O)C13)O2 (stereo unspecified)
Reply: False

Ask: Outcome? Cc1ccc(NC(=O)c2cccc(N(C)C)c2)cc1NC(=O)c1ccc(O)cc1
Reply: True

Ask: Outcome? NS(=O)(=O)Cc1noc2ccccc12
Reply: False

Ask: Outcome? CCc1cccc2c3c([nH]c12)[C@@](CC)(CC(=O)O)OCC3
Reply: False

Ask: Outcome? CCC(=O)NC(=S)N1CCN(c2ccc([N+](=O)[O-])cc2Cl)CC1
Reply: True

Ask: Outcome? COC(=O)N1CCC2(CC1)CN(C(=O)Nc1cccc(C#N)c1)C2
Reply: False

Ask: Outcome? Cc1cc(-c2ccc(/C=N/n3cnnc3)o2)c([N+](=O)[O-])cc1C
Reply: True

Ask: Outcome? Cc1cc(N2CCOCC2)ncc1[N+](=O)[O-]
Reply: True

Ask: Outcome? CN1CCN(c2ccc([N+](=O)[O-])cc2NC(=O)c2ccccc2Cl)CC1
Reply: False

Ask: Outcome? N=C(N)[C@H](N=Nc1ccccc1)C(N)=O
Reply: True

Ask: Outcome? COc1ccccc1C1=NOC(COC(=O)c2ccc3ccccc3n2)C1 (stereo unspecified)
Reply: True

Ask: Outcome? CCOC(=O)N1CCN(C(=O)c2oc3ccc(S(=O)(=O)N4CCCCC4)cc3c2C)CC1
Reply: False

Ask: Outcome? NS(=O)(=O)c1cc2c(cc1Cl)NC(CSCc1ccccc1)=NS2(=O)=O
Reply: False

Ask: Outcome? O=C1OC(OC2CCCCC2)(c2ccccc2)c2ccccc21 (stereo unspecified)
Reply: False

###

Molecular target: Cytochrome P450 1A2 (Homo sapiens) (UniProt P05177)
Experiment: Cytochrome panel assay with activity outcomes; as to activity, negative = inhibition: % is scaled to controls: 0 for no effect and ±100 for the full control effect
Conditions: recombinant CYP, pro-luciferin dealkylation, luminescence, p450-cyp1a2; series mostly up to 57.1 µM
The whole screen tested about 16,000 compounds, of which about 5,700 (36%) were called active. Roughly 24% stayed inconclusive and do not appear here. This is one part of the list.
observed.property: activity, negative = inhibition

Ask: Need activity, negative = inhibition, item CC(C)N(Cc1ccccc1)S(=O)(=O)c1n[nH]c(C(C)(C)C)n1
Reply: 2.16% [at 11.4 µM] (inactive)

Ask: Need activity, negative = inhibition, item O=C(O)c1cc(N=Nc2ccc([N+](=O)[O-])cc2)ccc1O
Reply: -15.2% [at 2.29 µM] (inactive)

Ask: Need activity, negative = inhibition, item CO[C@H]1COC(=O)CCC[C@@H](C)[C@H](OC)COC(=O)[C@H]2CCCN2C(=O)C/C=C\[C@@H]1C
Reply: -4.29% [at 11.4 µM] (inactive)

Ask: Need activity, negative = inhibition, item C=CC[C@@H]1C=C[C@H](O/N=C(\C)CCN2CCc3nc(CC)c(CC)cc3C2)[C@H](CO)O1
Reply: -3.35% [at 11.4 µM] (inactive)

Ask: Need activity, negative = inhibition, item CC1CCC(C(=O)O)([C@H](Br)C(=O)O)CC1 (stereo partly drawn)
Reply: -8.77% [at 11.4 µM] (inactive)

Ask: Need activity, negative = inhibition, item COC(=O)C/C=C\[C@@H](C)[C@@H](/C=N\O[C@@H](C)c1cc(-c2c(C)cc(C)cc2C)no1)NS(=O)(=O)c1ccc(C)cc1
Reply: 4.06% [at 11.4 µM] (inactive)

Ask: Need activity, negative = inhibition, item CC(=O)OC[C@@H]1O[C@H](C/C=N\OCC[C@H]2C=C[C@H](OC(C)=O)[C@@H](COC(C)=O)O2)C=C[C@@H]1OC(C)=O
Reply: -12.9% [at 11.4 µM] (inactive)

Ask: Need activity, negative = inhibition, item CC(C)=CCC/C(C)=C/CO/N=C1/C[C@@H](O)[C@@H](O)[C@@H]2[C@@H]3C(=O)N(C(C)(C)C)C(=O)[C@H]3CC[C@H]12
Reply: -9.03% [at 11.4 µM] (inactive)
